Exercise: state measured EC50, CellTiter-Glo for each of the compounds provided.
- System: HCC1599
- experimental.context: 72 h

Query (compound): `O=c1[nH]c(=O)n([C@H]2C[C@H](O)[C@@H](CO)O2)cc1F` ; field requested: EC50, CellTiter-Glo
27 nM

Query (compound): `COc1c(C)cnc(Cn2cnc3c(Cl)nc(N)nc32)c1C` ; field requested: EC50, CellTiter-Glo
190 nM

Query (compound): `COC1=C2C[C@@H](C)C[C@H](OC)[C@H](O)[C@@H](C)/C=C(\C)[C@H](OC(N)=O)[C@@H](OC)/C=C\C=C(/C)C(=O)NC(=CC1=O)C2=O` ; field requested: EC50, CellTiter-Glo
5810 nM
